- EXPERIMENTAL_TARGET: Apolipoprotein C-III (Homo sapiens) (UniProt P02656)
- Sequence (P02656 whole entry): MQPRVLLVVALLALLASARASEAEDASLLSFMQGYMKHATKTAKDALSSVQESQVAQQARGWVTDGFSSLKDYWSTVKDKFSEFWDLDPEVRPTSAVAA
- METHOD_NOTES: Inhibition of human APOC3 at 40 uM relative to control
READOUT_KIND: inhibition (%)
Just the number in %, nothing appended.

For CCCCCCc1c2c(c(C)c3c1Oc1ccccc1O3)C(=O)SC2 the compound record lists inhibition as 7

Lab book: inhibition of CCCCc1c2c(c(C)c3c1C(=O)OC3)Oc1ccccc1O2 noted as 89

# compound Cc1c2c(c(CCCCBr)c3c1C(=O)OC3)Oc1ccccc1O2 ; its inhibition = 17

The measured inhibition associated with CCCCCCc1c2c(c(C)c3c1C(=O)OC3)Oc1ccccc1O2 reads 75

// recorded inhibition for CCCCCCc1c2c(c(C)c3c1C(=O)SC3)Oc1ccccc1O2 : 21

Quick note, inhibition for CCCCCc1c2c(c(C)c3c1Oc1cc(OC)ccc1O3)C(=O)OC2 landed at 12

In plain terms, CCCCCc1c2c(c(C)c3c1C(=O)OC3)Oc1ccccc1O2 has a documented inhibition of 78

Recorded result, CCCCCc1c2c(c(C)c3c1C(=O)OC3)Oc1ccc(OC)cc1O2 , inhibition: 38

// recorded inhibition for Cc1c2c(c(CCCCBr)c3c1Oc1ccccc1O3)C(=O)OC2 : 67

Lookup result for CCCCCCc1c2c(c(C)c3c1Oc1ccccc1O3)C(=O)OC2 ; measured inhibition: 17

Query CCCCc1c2c(c(C)c3c1Oc1ccccc1O3)C(=O)OC2 yields inhibition of 34
